target: Bcl-2 protein (Recombinant Human Bcl-2 Protein) (Homo sapiens); construct: purchased Novus NBP2-34889; assay: Binding evaluation of mixture library compounds to Bcl-2 using AS-MS (affinity selection mass spectrometry); conditions: AS-MS, mixture library, Bcl-2; replicate n = 2; ASMS Ratio(%)=(A−C)/B×100
READOUT NAME: ASMS ratio (%) n = 2

1. CCOc1cncc(C#Cc2ccccc2C(=O)N2CCN(c3ccc(C(=O)NS(=O)(=O)CC45CC6CC(CC(C6)C4)C5)cc3)CC2)c1
2. CCOc1cncc(-c2ccc(C(=O)N3CCN(c4ccc(C(=O)NS(=O)(=O)c5ccc(NCCSc6ccccc6)c([N+](=O)[O-])c5)nn4)CC3)cc2F)c1
3. CCOc1cncc(C#Cc2cc(C(=O)N3CCN(c4ccc(C(=O)NS(=O)(=O)c5ccc(NCCSc6ccccc6)c([N+](=O)[O-])c5)nn4)CC3)cc(C(F)(F)F)c2)c1
4. CCOc1cncc(-c2cc(CN3CCN(c4ccc(C(=O)NS(=O)(=O)c5ccc(NCCSc6ccccc6)c([N+](=O)[O-])c5)nn4)CC3)cc(C(F)(F)F)c2)c1
// query Rank the listed compounds, smallest ASMS ratio (%) n = 2 first and largest last. Put the labels in the order asked and list them.
// result 1, 2, 3, 4

1. CCOc1cccc(C#Cc2ccccc2CN2CCN(c3ccc(C(=O)NS(=O)(=O)c4ccc(NCCSc5ccccc5)c([N+](=O)[O-])c4)cc3)CC2)c1
2. CCOc1cccc(-c2ccc(C(=O)N3CCN(c4ccc(C(=O)NS(C)(=O)=O)cc4)CC3)cc2C)c1
3. CCOc1cccc(C#Cc2cncc(C(=O)N3CCN(c4ccc(C(=O)NS(=O)(=O)CC56CC7CC(CC(C7)C5)C6)nn4)CC3)c2)c1
// query Place the items in sequence of falling ASMS ratio (%) n = 2. Put the labels in the order asked and list them.
// result 1, 3, 2

---

target: Bcl-2 protein (Recombinant Human Bcl-2 Protein) (Homo sapiens, UniProt P10415); construct: purchased Novus NBP2-34889; experiment: Binding evaluation of mixture library compounds to Bcl-2 using AS-MS (affinity selection mass spectrometry); conditions: n = 1
Sequence (P10415 whole entry): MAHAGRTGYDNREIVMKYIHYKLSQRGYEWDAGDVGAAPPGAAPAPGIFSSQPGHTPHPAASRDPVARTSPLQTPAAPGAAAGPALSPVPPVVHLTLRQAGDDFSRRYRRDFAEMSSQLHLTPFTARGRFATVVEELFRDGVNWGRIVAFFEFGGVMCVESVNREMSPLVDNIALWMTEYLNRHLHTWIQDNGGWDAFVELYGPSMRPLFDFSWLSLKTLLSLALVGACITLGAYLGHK
READOUT NAME: ASMS ratio (%)

1. CCOc1cccc(-c2cnn(-c3cc(C(=O)N4CCN(c5ccc(C(=O)NS(=O)(=O)c6ccc(NCCSc7ccccc7)c(C(F)(F)F)c6)nn5)CC4)cc(C(F)(F)F)c3)c2)c1 [B2R021-01]
2. CCOc1cccc(C#Cc2ccccc2C(=O)N2CCN(c3ccc(C(=O)NS(=O)(=O)c4ccc(NCCSc5ccccc5)c(C(F)(F)F)c4)nn3)CC2)c1 [B2R007-01]
3. CCOc1cccc(-c2cc(CN3CCN(c4ccc(C(=O)NS(=O)(=O)c5ccc(NCCSc6ccccc6)c(C(F)(F)F)c5)cc4)CC3)cc(C(F)(F)F)c2)c1 [B2R061-01]
// query Could you please sort these 3 entries by ASMS ratio (%) from high to low? Put the labels in the order asked and list them.
// result 1, 3, 2
(1: 13.0%, 3: 9.1%, 2: 0.0%)

---

biological target: Bcl-2 protein (Recombinant Human Bcl-2 Protein) (Homo sapiens, UniProt P10415); construct: purchased Novus NBP2-34889; assay: Binding evaluation of mixture library compounds to Bcl-2 using AS-MS (affinity selection mass spectrometry); conditions: AS-MS, mixture of 1200 compounds, Bcl-2; ASMS Ratio(%)=(A−C)/B×100; replicate n = 2
READOUT NAME: ASMS ratio (%) n = 2

a. CCOc1cncc(-c2cnn(-c3cc(C(=O)N4CCN(c5ccc(C(=O)NCC67CC8CC(CC(C8)C6)C7)nn5)CC4)cc(C(F)(F)F)c3)c2)c1
b. CCOc1cccc(-c2cc(CN3CCN(c4ccc(C(=O)NCC(F)(F)F)cc4)CC3)cc(C(F)(F)F)c2)c1
c. CCOc1cccc(-c2ccc(C(=O)N3CCN(c4ccc(C(=O)NCC(F)(F)F)cc4)CC3)cc2C)c1
// query Rank the listed molecules, smallest ASMS ratio (%) n = 2 first and largest last. Put the labels in the order asked and list them.
// result b, c, a
(b: −1.3%, c: −0.8%, a: 7.7%)

a. CCOc1cccc(-c2ccc(CN3CCN(c4ccc(C(=O)NCC56CC7CC(CC(C7)C5)C6)cc4)CC3)c(CC)c2)c1
b. CCOc1cccc(-c2cc(C(=O)N3CCN(c4ccc(C(=O)NCC56CC7CC(CC(C7)C5)C6)cc4)CC3)cc(C(C)(C)C)c2)c1
c. CCOc1cncc(C#Cc2ccccc2CN2CCN(c3ccc(C(=O)NCC45CC6CC(CC(C6)C4)C5)cc3)CC2)c1
d. CCOc1cncc(-c2cc(CN3CCN(c4ccc(C(=O)NCC(F)(F)F)cc4)CC3)cc(OC(F)(F)F)c2)c1
// query Endpoint returns the given molecules ordered by ascending ASMS ratio (%) n = 2. Put the labels in the order asked and list them.
// result a, b, c, d
(a: −9.1%, b: −5.0%, c: 0.0%, d: 0.7%)

1. CCOc1cccc(-c2cc(C(=O)N3CCN(c4ccc(C(=O)NCC56CC7CC(CC(C7)C5)C6)cc4)CC3)cc(C(F)(F)F)c2)c1
2. CCOc1cncc(-c2ccc(CN3CCN(c4ccc(C(=O)NCC(F)(F)F)nn4)CC3)cc2C)c1
3. CCOc1cncc(-c2ccc(CN3CCN(c4ccc(C(=O)NCC56CC7CC(CC(C7)C5)C6)nn4)CC3)cc2F)c1
// query Place the items in sequence of falling ASMS ratio (%) n = 2. Put the labels in the order asked and list them.
// result 3, 2, 1
(3: 1.2%, 2: 0.0%, 1: −8.4%)

1. CCOc1cccc(-c2ccc(CN3CCN(c4ccc(C(=O)NCC56CC7CC(CC(C7)C5)C6)cc4)CC3)c3ccccc23)c1
2. CCOc1cccc(-c2cnn(-c3cc(C(=O)N4CCN(c5ccc(C(=O)NCC(F)(F)F)cc5)CC4)cc(C(F)(F)F)c3)c2)c1
3. CCOc1cccc(-c2cnn(-c3cc(C(=O)N4CCN(c5ccc(C(=O)NCC67CC8CC(CC(C8)C6)C7)nn5)CC4)cc(C(F)(F)F)c3)c2)c1
// query Place the items in sequence of falling ASMS ratio (%) n = 2. Put the labels in the order asked and list them.
// result 2, 3, 1
